target: CYP1A2 (Homo sapiens); construct: native enzyme in pooled human liver microsomes, phenacetin O-deethylation probe; assay: phenacetin to acetaminophen, LC-MS/MS; format: biochemical; settings: microsomes, read-out: IC50 value / Sophoraflavone G
Sequence (P05177 2-516): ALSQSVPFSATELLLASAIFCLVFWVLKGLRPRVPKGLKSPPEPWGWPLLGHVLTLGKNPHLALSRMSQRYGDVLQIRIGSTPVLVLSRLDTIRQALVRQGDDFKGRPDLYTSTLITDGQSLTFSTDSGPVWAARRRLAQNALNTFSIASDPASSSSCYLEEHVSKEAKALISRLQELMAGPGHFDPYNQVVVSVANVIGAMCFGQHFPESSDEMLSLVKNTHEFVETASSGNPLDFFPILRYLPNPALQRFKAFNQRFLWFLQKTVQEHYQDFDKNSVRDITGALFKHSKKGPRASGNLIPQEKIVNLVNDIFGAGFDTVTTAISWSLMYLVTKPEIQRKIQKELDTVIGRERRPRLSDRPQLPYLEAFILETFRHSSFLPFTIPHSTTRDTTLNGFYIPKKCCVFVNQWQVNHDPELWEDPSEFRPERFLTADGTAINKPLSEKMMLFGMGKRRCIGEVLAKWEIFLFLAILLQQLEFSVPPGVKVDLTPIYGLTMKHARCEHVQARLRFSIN
recordedEndpoint: pIC50
The read-out pIC50 is expressed as -log10 of concentration in moles per litre.

Query :: Identify the measured pIC50 of "C=C(C)[C@H](CC=C(C)C)Cc1c(O)cc(O)c2c1O[C@H](c1ccc(O)cc1O)CC2=O" for CYP1A2 (Homo sapiens).
Result :: 5.65

###

Biological target: CYP2C8 (Homo sapiens)
Construct: methods text says paclitaxel
Sequence (P10632 1-490): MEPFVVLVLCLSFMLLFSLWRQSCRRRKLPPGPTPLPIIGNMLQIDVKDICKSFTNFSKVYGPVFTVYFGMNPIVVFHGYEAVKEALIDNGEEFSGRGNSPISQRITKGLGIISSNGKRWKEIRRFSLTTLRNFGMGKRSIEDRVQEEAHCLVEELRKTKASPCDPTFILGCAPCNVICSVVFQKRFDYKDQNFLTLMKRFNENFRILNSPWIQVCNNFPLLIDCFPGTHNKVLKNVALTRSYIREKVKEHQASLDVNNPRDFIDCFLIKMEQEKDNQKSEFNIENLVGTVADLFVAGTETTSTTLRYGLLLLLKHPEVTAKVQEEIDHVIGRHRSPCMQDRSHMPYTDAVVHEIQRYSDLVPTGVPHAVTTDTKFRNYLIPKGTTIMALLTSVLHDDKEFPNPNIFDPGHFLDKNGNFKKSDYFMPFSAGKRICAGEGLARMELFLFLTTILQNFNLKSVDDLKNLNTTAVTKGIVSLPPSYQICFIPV
Assay: rosiglitazone hydroxylation, LC-MS/MS
Assay type: biochemical
Settings: microsomes, read-out: IC50 value / Kushenol A
pIC50: −log10 of the molar value.
recordedEndpoint: pIC50

molecule="C=C(C)[C@H](CC=C(C)C)Cc1c(O)c(CC=C(C)C)c(O)c2c1O[C@H](c1ccc(O)cc1O)[C@@H](O)C2=O [Kushenol M]" recordedendpoint=pIC50 testresult="< 4.30"

Query :: I would be grateful if you could share the reported pIC50 for C=C(C)[C@H](CC=C(C)C)Cc1c(O)cc(O)c2c(=O)c(O)c(-c3ccc(O)cc3O)oc12 [Kushenol C] .
Result :: < 4.30

Query :: I would be grateful if you could share the reported pIC50 for C=C(C)[C@H](CC=C(C)C)Cc1c(O)cc(O)c2c1O[C@H](c1ccccc1O)CC2=O [Kushenol A] .
Result :: < 4.30

Source: paper PMC6436327
